Every entry's value here was drawn from PubChem BioAssay.

target: Fibroblast growth factor 2 (Homo sapiens) (UniProt P09038); test: basic fibroblast growth factor binding to printed compounds – biochemical, small-molecule microarray, 635/667 nm fluorescence, primary screen (AID 1133); conditions: FGF2, fluorescence 635/667, higher = more signal
Sequence (P09038 whole entry, looked up): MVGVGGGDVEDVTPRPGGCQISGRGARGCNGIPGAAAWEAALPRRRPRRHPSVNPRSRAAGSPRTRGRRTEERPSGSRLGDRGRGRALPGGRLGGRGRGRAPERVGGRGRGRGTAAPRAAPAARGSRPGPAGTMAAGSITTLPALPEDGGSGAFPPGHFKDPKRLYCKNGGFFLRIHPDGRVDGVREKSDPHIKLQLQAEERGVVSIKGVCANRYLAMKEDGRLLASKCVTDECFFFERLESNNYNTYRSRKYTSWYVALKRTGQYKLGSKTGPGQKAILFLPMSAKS
Parameter: composite z-score. Scope: all listed entries.
resultType: composite z-score

compound	endpointResult
O=c1cccc(-c2ccccc2)o1	-0.417
C=CCOC(=O)[C@@H]1[C@H]2C(=O)O[C@H](c3ccccc3)[C@H](c3ccccc3)N2[C@H](c2ccc(OCCOC(=O)[C@H]3C[C@H]4C(=O)N[C@@H](CC(C)C)C(=O)N4[C@H]3c3cccc(OCCO)c3)cc2)[C@@]12C(=O)Nc1ccc(I)cc12	1.63
O=C1[C@H]2C=C(Br)[C@H](C[C@@H]2OCCOCCO)[C@@]12CO2	0.179
C=CCN1Cc2ccccc2C[C@]2(N=C(c3ccc(OCCCO)cc3)O[C@@H]2c2ccccc2)C1=O	1.76
O[C@@H](Cc1ccccc1)[C@@H](/C=C/c1ccccc1)NCc1ccccc1Br	-1.14
COCCn1c(C(=O)N2CCCC2)cc2c1C[C@H]1CN(C(=O)c3ccccc3)[C@@](Cc3ccc(OC)cc3)(C(=O)OC)[C@@H]21	-0.552
Cc1ccc(S(=O)(=O)N2CC(C(=O)O)=CCC2c2ccccc2)cc1 (stereo not given)	-1.14
COC(=O)[C@@]1(Cc2ccccc2)[C@H]2c3cc(C(=O)N(C)C)n(Cc4ccccc4)c3C[C@H]2CN1C(=O)c1ccccc1	-0.605
O=C1OCC=C[C@H]2OC34C=CCN(c5ccc(Cl)cc5)C(=O)[C@H]3N(CCCO)C(=O)[C@@H]4[C@@H]12 (stereo not given in full)	-0.708
C=CCN1C(=O)[C@]2(COC(c3ccc(OCCCO)cc3)=N2)Cc2ccccc21	1.08
C[n+]1ccc2ccc(O)cc2c1	1.68
O=P(NCC1(CC2(c3ccccc3)CO2)CC1)(c1ccccc1)c1ccccc1 (stereo not given)	-1.36
CCCCCCCCCCC(O)C1C=CC2C(=O)N(c3ccccc3)C(=O)C2N1Nc1ccc([N+](=O)[O-])cc1 (stereo not given)	0.378
[N-]=[N+]=NCc1ccccc1C[C@@]1(C(=O)NCc2ccccc2)N=C(c2ccc(OCCCO)cc2)O[C@@H]1c1ccccc1CN=[N+]=[N-]	0.0516
COc1ccc(C(=O)Nc2cccc(CN3C(=O)[C@@]4(O[C@@H](CCn5cc([C@H](O)c6ccccc6)nn5)[C@H]([Si](C)(C)c5ccc(OC)cc5)[C@H]4C)c4ccccc43)c2)cc1	0.612
COC(=O)[C@@]1(Cc2ccc(F)cc2)[C@H]2c3cc(C(=O)N(C)C)n(CCc4c[nH]c5ccc(OC)cc45)c3C[C@H]2CN1C(=O)c1ccccc1	-1.09
COC(=O)[C@@]1(Cc2ccccc2)[C@H]2c3cc(C(=O)N(C)C)n(Cc4cc(F)c(F)c(F)c4)c3C[C@H]2CN1C(=O)c1ccccc1	-0.311
[N-]=[N+]=NCc1ccccc1C[C@]1(C(=O)NCC(O)CO)COC(c2ccc(OCCCO)cc2)=N1 (stereo not given in full)	-0.0586
O=C1c2ccccc2[C@](Cc2ccccc2I)(C(=O)O)[C@H](c2ccc(CO)cc2)N1Cc1ccccc1C(F)(F)F	-0.238
Cc1cccc(/C=C/C=O)c1	-0.163

====

tested on: Human papillomavirus type 1a E7 protein (residues 1-88); test: HPV1a E7 small-molecule binders, primary screen, biochemical, small-molecule microarray, residues 1-88, 635 nm (AID 1129); conditions: small-molecule microarray binding, fluorescence 635 nm; higher = more signal
resultType: composite z-score

structureAsSmiles	resultType	endpointResult
O=C(N1CCCCC1)[C@]1(CCS(=O)(=O)c2ccccc2)N=C(c2ccc(OCCCO)cc2)O[C@@H]1c1ccccc1	composite z-score	1.22
Cc1ccc(S[C@]2(C(=O)NCc3ccccc3)CC(=O)N(Cc3cc(C(F)(F)F)cc(C(F)(F)F)c3)[C@@H]2c2ccc(CO)cc2)cc1	composite z-score	-0.469
COCCOC(=O)N1C(=O)[C@@]2(c3cc(C#CC4=CCCCC4)ccc31)[C@H](c1ccc(OCCO)cc1)N1[C@H](c3ccccc3)[C@H](c3ccccc3)OC(=O)[C@H]1[C@@H]2C(=O)Nc1nc2ccccc2s1	composite z-score	1.18
C=C(/C(=C/C[C@@H](OC(=O)c1ccncc1)c1ccc(CO)o1)c1cc(C(=O)OC)ccc1OC)C(C)C	composite z-score	1.23
CC(=O)N1Cc2ccccc2C[C@@]2(N=C(c3ccc(OCCCO)cc3)O[C@H]2c2ccccc2)C1=O	composite z-score	1.17
C=CCNC(=O)[C@H]1[C@@H]2C(=O)O[C@@H](c3ccccc3)[C@@H](c3ccccc3)N2[C@@H](c2ccc(OCCO)cc2)[C@]12C(=O)N(C(=O)OCCOC)c1ccc(C#CC3(O)CCCCCC3)cc12	composite z-score	1.21
COCCCNC(=O)[C@@]1(C)c2ccccc2C(=O)N(Cc2ccccc2)[C@H]1c1ccc(CO)cc1	composite z-score	0.0047
CCOC(=O)C[C@H]1[C@H](OC(=O)c2ccccc2-c2ccccc2)[C@@H](NC(=O)c2ccc(-c3ccccc3)cc2)c2cc(OCCCO)ccc2N1C(=O)c1ccccc1	composite z-score	0.78
Oc1ccc2cc[n+](Cc3cccc(OC(F)(F)F)c3)cc2c1	composite z-score	0.0093
COCCOC(=O)N1C(=O)[C@@]2(c3cc(C#CCCO)ccc31)[C@H](c1ccc(O)cc1)N1[C@H](c3ccccc3)[C@H](c3ccccc3)OC(=O)[C@H]1[C@@H]2C(=O)N1CCCCCCC1	composite z-score	1
C=CC[C@@]1(C(N)=O)N=C(c2ccc(OCCCO)cc2)O[C@@H]1c1ccccc1N=[N+]=[N-]	composite z-score	1.24
CN(C)CCCN1C(=O)[C@@]2(c3ccc([N+](=O)[O-])cc3)CC(=O)N(C3CCCCC3)[C@@H]2c2ccc(CO)cc21	composite z-score	-1.05
CC(C)(C)OC(=O)CC[C@@]1(C(=O)N2CCOCC2)N=C(c2ccc(OCCCO)cc2)O[C@@H]1c1ccccc1N=[N+]=[N-]	composite z-score	1.29

====

experiment: probe aNOTCH2 binding on compound microarray – biochemical, small-molecule microarray, 635/667 nm fluorescence, primary screen (AID 1121); settings: higher = more signal;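 also: score merges feature fluorescence read at 667 nm with its signal to noise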
Everything with composite z-score lower than -0.09 is false (0); everything else, including exactly -0.09, is true (1).

compound	label
O=C1C2C=CC(C(O)c3ccccn3)N(Nc3ccccc3F)C2C(=O)N1c1ccccc1 (stereo unspecified)	false (0)
C=CCC(OC(C)=O)[C@@H]1[C@@H](N(Cc2cc3ccccc3o2)C(=O)c2cccc3ccccc23)c2cc(OCCCO)ccc2N1C(=O)Cc1ccc(OC)cc1 (stereo partly specified)	false (0)
C=CC[C@@]1(C(=O)NCc2ccccc2)N=C(c2ccc(OCCCO)cc2)O[C@@H]1c1ccccc1CN=[N+]=[N-]	true (1)
O=C1C2C=CC(C(O)C3CC=CCC3)N(n3cnnc3)C2C(=O)N1Cc1ccccc1 (stereo unspecified)	false (0)
[N-]=[N+]=NCc1ccccc1[C@@H]1OC(c2ccc(OCCCO)cc2)=N[C@]1(Cc1ccccc1N=[N+]=[N-])C(N)=O	true (1)
COC(=O)[C@@]1(Cc2ccc(F)cc2)[C@H]2c3cc(C(=O)N4CCCC4)n(Cc4ccc(Cl)c(C(F)(F)F)c4)c3C[C@H]2CN1C(=O)c1ccccc1	true (1)

====

test: probe aNOTCH2 binding on compound microarray – biochemical, small-molecule microarray, 635/667 nm fluorescence, primary screen (AID 1121); details: higher = more signal;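 also: score merges feature fluorescence read at 667 nm with its signal to noise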
Everything with composite z-score lower than -0.07 is Condition not met; everything else, including exactly -0.07, is Condition met.

compound	label
COC(=O)[C@@]1(Cc2ccc(OC)cc2)[C@H]2c3cc(C(=O)N(C)C)n(CCSCCO)c3C[C@H]2CN1C(=O)c1ccccc1	Condition met
COCCOC(=O)N1C(=O)[C@@]2(c3cc(C#CCCO)ccc31)[C@H](C(=O)NC[C@H](O)c1ccccc1)[C@H]1C(=O)O[C@H](c3ccccc3)[C@H](c3ccccc3)N1[C@@H]2c1ccc(OCCO)cc1	Condition not met
O[C@@H](Cc1ccccc1)[C@@H](/C=C/c1ccccc1)NCc1ccccc1Br	Condition not met
O=C(NCC(O)CO)[C@@]1(Cc2ccccc2)COC(c2ccc(OCCCO)cc2)=N1 (stereo partly drawn)	Condition not met
CCOC1=C2C(c3ccc(C)cc3)N(S(=O)(=O)c3ccc(C)cc3)CC2n2c(=O)n(-c3ccccc3)c(=O)n2C1 (stereo not drawn)	Condition met
Cc1ccc(N2C(=O)c3ccccc3[C@](C)(C(=O)NCCN3CCOCC3)[C@@H]2c2ccc(CO)cc2)nc1	Condition not met
CN(C)CCCCCCNC(=O)[C@@H]1C[C@@H]2C(=O)N[C@@H](Cc3ccccc3)C(=O)N2[C@@H]1c1cccc(OCCO)c1	Condition not met
O=C1OCC=C[C@H]2OC34C=CCN(CCN5CCOCC5)C(=O)[C@H]3N(CCCCCCO)C(=O)[C@@H]4[C@@H]12 (stereo partly drawn)	Condition not met
COc1cc(NN2C(C(O)c3ccccc3)C=CC3C(=O)N(c4ccccc4)C(=O)C32)cc(OC)c1OC (stereo not drawn)	Condition not met
C=C(C(=O)CC[C@@H](OC(=O)c1cccnc1)c1ccc(OCCO)cc1)C(C)C	Condition not met
CCCNC(=O)[C@@]1(C)c2ccccc2C(=O)N(Cc2ccc(OC(F)(F)F)cc2)[C@H]1c1ccc(CO)cc1	Condition met
C=CCN1C(=O)[C@]2(Cc3ccccc31)N=C(c1ccc(OCCCO)cc1)O[C@@H]2c1ccccc1	Condition met
[N-]=[N+]=NCc1ccccc1[C@@H]1OC(c2ccc(OCCCO)cc2)=N[C@]1(Cc1ccccc1)C(=O)O	Condition not met
NC(=O)NCC#Cc1ccc2c(c1)[C@]1(C(=O)N2)[C@H](c2ccccc2OCCO)N2[C@H](c3ccccc3)[C@H](c3ccccc3)OC(=O)[C@H]2[C@@H]1C(=O)N1CCCCCCC1	Condition met
O=c1cccc(-c2ccc3ccccc3c2)o1	Condition not met
O=C(NCC(F)(F)F)[C@@H]1c2ccccc2C(=O)N(Cc2ccccc2)[C@H]1c1ccc(CO)cc1	Condition met
Cc1cc(C)c(C(O)C2C=CC3C(=O)NC(=O)C3N2Nc2ccccn2)c(C)c1 (stereo not drawn)	Condition met
CCCC[C@H]1OB(O)C[C@H]2C1=C(COc1ccccc1)C[C@H]1C(=O)N(Cc3ccccc3)C(=O)[C@H]12	Condition not met
CCN(CC)c1ccc(N2CC=CC34O[C@@H]5/C=C\CCC(C)OC(=O)C5[C@H]3C(=O)N(CCCCCCO)[C@@H]4C2=O)cc1 (stereo partly drawn)	Condition not met
CCOC(=O)C1=CC[C@@H](c2cccc(Cl)c2)N(S(=O)(=O)c2ccc(C)cc2)[C@H]1c1ccc(C#N)cc1	Condition met
C#C[C@H](O[Si](C#CCCCCCC)(C(C)C)C(C)C)c1ccccc1	Condition not met
